Assay: Selectivity index, ratio of IC50 for JNK2 (unknown origin) to IC50 for JNK3 (unknown origin)
Measured property: Ratio IC50

In the examples that follow, each entry is paired with its recorded Ratio IC50.
Look up and state reported Ratio IC50 for "CNC(=O)c1cc(-n2ncc3cc(Nc4ccccc4Cl)c(F)cc32)cs1"
18

Recall and state the measured Ratio IC50 for "O=C(NC1COC1)c1cc(-n2ncc3cc(Nc4ccccc4Cl)c(F)cc32)cs1" .
95

(P) CNC(=O)c1cc(-n2ncc3cc(Nc4ccccc4Cl)cnc32)cs1
(Q) O=C(NC1COC1)c1cc(-n2ncc3cc(Nc4ccccc4Cl)cnc32)cs1
I'm curious, which of these has a smaller Ratio IC50 number: P or Q ? Let me know the label of the one you choose.
P
(P: 17, Q: 43)

----------
Experiment: Selectivity index, ratio of IC50 for p38 alpha (unknown origin) to IC50 for JNK3 (unknown origin)
Measured property: Ratio IC50

Look up and report measured Ratio IC50 for this entry: "CNC(=O)c1cc(-n2ncc3cc(Nc4c(F)cccc4Cl)c(C)nc32)cs1"
31

// Input: "O=C(NCC(F)F)c1cc(-n2ncc3cc(Nc4ccccc4Cl)c(F)cc32)cs1" . Output its Ratio IC50 only.
12

Answer with the recorded Ratio IC50 of "CNC(=O)c1cc(-n2ncc3cc(Nc4c(F)cccc4OC)c(F)cc32)cs1" only.
13

(a) O=C(N[C@H]1CCOC1)c1cc(-n2ncc3cc(Nc4ccccc4Cl)c(F)cc32)cs1
(b) O=C(NC1COC1)c1cc(-n2ncc3cc(Nc4ccccc4Cl)c(F)cc32)cs1
(c) CC(C)NC(=O)c1cc(-n2ncc3cc(Nc4ccccc4Cl)c(F)cc32)cs1
(d) CNC(=O)c1cc(-n2ncc3cc(Nc4ccccc4Cl)cnc32)cs1
Ascending by Ratio IC50, please: list the compounds accordingly. When ranking, write the labels in the order the request describes.
a, d, b, c

----------
Molecular target: Mitogen-activated protein kinase 8 (Homo sapiens, UniProt P45983)
Sequence (P45983 whole entry): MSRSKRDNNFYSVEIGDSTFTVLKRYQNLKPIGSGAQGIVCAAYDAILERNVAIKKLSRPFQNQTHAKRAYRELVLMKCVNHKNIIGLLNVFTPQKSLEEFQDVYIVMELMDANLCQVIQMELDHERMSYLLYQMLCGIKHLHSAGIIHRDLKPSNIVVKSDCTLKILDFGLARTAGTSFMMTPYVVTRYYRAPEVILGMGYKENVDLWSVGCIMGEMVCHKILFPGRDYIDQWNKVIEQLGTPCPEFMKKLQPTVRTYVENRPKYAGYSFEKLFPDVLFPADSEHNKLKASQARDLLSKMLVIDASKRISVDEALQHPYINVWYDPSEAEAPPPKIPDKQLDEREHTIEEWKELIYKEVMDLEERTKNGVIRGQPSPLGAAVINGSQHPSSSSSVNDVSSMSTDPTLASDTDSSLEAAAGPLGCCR
Test: Inhibition of JNK1 (unknown origin) using biotinylated FL-ATF-2 as substrate measured after 22 mins by homogeneous time-resolved fluorescence analysis
Measured property: IC50 (nM)

Solved entries:
Indicate its recorded IC50; the compound in question is "COCCNC(=O)c1cc(-n2ncc3cc(Nc4ccccc4Cl)c(F)cc32)cs1"
169

Give me measured IC50, please, for this compound: "CNC(=O)c1cc(-n2ncc3cc(Nc4ccccc4Cl)c(OC)cc32)cs1"
1100

For the compound "CNC(=O)c1cc(-n2ncc3cc(Nc4c(F)cccc4Cl)cnc32)cs1" , report IC50.
213

(P) CNC(=O)c1cc(-n2ncc3cc(Nc4c(F)cccc4Cl)c(F)cc32)cs1
(Q) CNC(=O)c1cc(-n2ncc3cc(Nc4c(F)cccc4Cl)c(C)nc32)cs1
(R) O=C(NC1CCOCC1)c1cc(-n2ncc3cc(Nc4ccccc4Cl)c(F)cc32)cs1
Kindly order the items shown according to IC50, from the highest value down. List the labels, following the order given in the request.
Q, P, R
(Q: 872 nM, P: 258 nM, R: 120 nM)

----------
Biological target: Mitogen-activated protein kinase 10 (Homo sapiens, UniProt P53779)
Sequence (P53779 whole entry): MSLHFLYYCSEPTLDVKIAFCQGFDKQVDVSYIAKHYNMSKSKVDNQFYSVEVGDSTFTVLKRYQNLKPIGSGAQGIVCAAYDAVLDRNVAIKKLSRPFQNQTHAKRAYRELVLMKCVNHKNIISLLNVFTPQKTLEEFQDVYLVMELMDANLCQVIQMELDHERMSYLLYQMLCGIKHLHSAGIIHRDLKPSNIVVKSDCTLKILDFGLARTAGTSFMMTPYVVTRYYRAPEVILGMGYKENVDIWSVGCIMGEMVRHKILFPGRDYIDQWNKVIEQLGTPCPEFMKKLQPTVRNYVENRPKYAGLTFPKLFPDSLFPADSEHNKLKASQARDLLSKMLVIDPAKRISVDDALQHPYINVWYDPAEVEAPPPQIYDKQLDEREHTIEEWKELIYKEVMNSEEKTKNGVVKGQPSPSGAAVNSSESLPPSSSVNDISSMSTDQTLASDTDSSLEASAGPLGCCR
Experiment: Inhibition of JNK3alpha1 (unknown origin) using biotinylated FL-ATF-2 as substrate measured after 22 mins by homogeneous time-resolved fluorescence analysis
pIC50: −log10 of the molar value.
Measured property: pIC50

Check the records and state pIC50 for "CNC(=O)c1cc(-n2ncc3cc(Nc4c(F)cccc4Cl)cnc32)cs1"
8.70

Determine its reported pIC50: "CNC(=O)c1cc(-n2ncc3cc(Nc4c(F)cccc4Cl)ncc32)cs1"
8.70

Provide measured pIC50 value, entry: "O=C(NC1CCOCC1)c1cc(-n2ncc3cc(Nc4ccccc4Cl)c(F)cc32)cs1"
8.70

----------
Assay: Selectivity index, ratio of IC50 for JNK1 (unknown origin) to IC50 for JNK3 (unknown origin)
Measured property: Ratio IC50

Please review the following examples before continuing.
Item "CNC(=O)c1cc(-n2ncc3cc(Nc4ccccc4Cl)c(F)cc32)cs1" : provide Ratio IC50
124

Entry "CNC(=O)c1cc(-n2ncc3cc(Nc4ccccc4Cl)cnc32)cs1" needs its Ratio IC50 filled in; supply it.
197

Assign Ratio IC50 to the following record: "CNC(=O)c1cc(-n2ncc3cc(Nc4c(F)cccc4Cl)ncc32)cs1"
130

(a) O=C(NC1COC1)c1cc(-n2ncc3cc(Nc4ccccc4Cl)ncc32)cs1
(b) Cc1nc2c(cnn2-c2csc(C(=O)NC3COC3)c2)cc1Nc1ccc(F)cc1Cl
Hi, I'm comparing a with b and wondering which one has the bigger number for Ratio IC50. Any idea? Identify your pick by its label.
a

----------
Molecular target: Mitogen-activated protein kinase 14 (Homo sapiens, UniProt Q16539)
Sequence (Q16539 whole entry): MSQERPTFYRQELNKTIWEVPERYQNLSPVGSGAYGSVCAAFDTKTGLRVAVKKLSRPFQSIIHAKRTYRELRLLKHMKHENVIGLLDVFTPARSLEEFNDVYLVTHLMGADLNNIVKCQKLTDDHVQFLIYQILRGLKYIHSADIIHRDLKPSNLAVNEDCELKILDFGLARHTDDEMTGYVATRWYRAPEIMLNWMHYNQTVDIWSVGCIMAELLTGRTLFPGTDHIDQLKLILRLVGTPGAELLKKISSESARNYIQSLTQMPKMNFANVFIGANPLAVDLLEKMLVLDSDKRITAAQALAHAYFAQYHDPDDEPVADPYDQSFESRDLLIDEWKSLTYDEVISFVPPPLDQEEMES
Experiment: Inhibition of p38 alpha (unknown origin) using biotinylated FL-ATF-2 as substrate measured after 22 mins by homogeneous time-resolved fluorescence analysis
Measured property: IC50 (nM)

Here is how some compounds turned out for IC50.
Input "O=C(N[C@H]1CCOC1)c1cc(-n2ncc3cc(Nc4ccccc4Cl)c(F)cc32)cs1" , output reported IC50.
24

Note down IC50 recorded for "CNC(=O)c1cc(-n2ncc3cc(Nc4c(F)cccc4Cl)c(C)nc32)cs1"
380

Please list IC50 recorded for the compound "O=C(NC1COC1)c1cc(-n2ncc3cc(Nc4ccccc4Cl)c(F)cc32)cs1"
400

Assign IC50 to the following record: "COCCNC(=O)c1cc(-n2ncc3cc(Nc4ccccc4Cl)c(F)cc32)cs1"
41

Could you please provide reported IC50 for "O=C(NC1COC1)c1cc(-n2ncc3cc(Nc4ccccc4Cl)cnc32)cs1" ? Thanks!
260

(a) CC(C)N1CC[C@@H](NC(=O)c2cc(-n3ncc4cc(Nc5ccccc5Cl)ccc43)cs2)C1
(b) CC(=O)N1CC[C@H](NC(=O)c2cc(-n3ncc4cc(Nc5ccccc5Cl)c(F)cc43)cs2)C1
(c) CNC(=O)c1cc(-n2ncc3cc(Nc4c(F)cccc4Cl)c(F)cc32)cs1
(d) Cc1nc2c(cnn2-c2csc(C(=O)NC3COC3)c2)cc1Nc1cc(F)ccc1Cl
List the 4 entries from lowest IC50 to highest IC50 value. List the labels according to the requested ordering.
c, b, a, d

----------
Experiment: Selectivity index, ratio of IC50 for JNK2 (unknown origin) to IC50 for JNK3 (unknown origin)
Measured property: Ratio IC50

Answer with the recorded Ratio IC50 of "CNC(=O)c1cc(-n2ncc3cc(Nc4c(F)cccc4Cl)c(F)cc32)cs1" only.
15

(a) CNC(=O)c1cc(-n2ncc3cc(Nc4c(F)cccc4Cl)ncc32)cs1
(b) CNC(=O)c1cc(-n2ncc3cc(Nc4c(F)cccc4Cl)c(C)nc32)cs1
Lower Ratio IC50: a or b ? State your choice using its label.
b
(b: 11, a: 37)

----------
Target: Mitogen-activated protein kinase 14 (Homo sapiens)
Experiment: Inhibition of p38 alpha (unknown origin) using biotinylated FL-ATF-2 as substrate measured after 22 mins by homogeneous time-resolved fluorescence analysis
Measured property: IC50

Here is how some compounds turned out for IC50.
Please supply the value of reported IC50 for the item "CNC(=O)c1cc(-n2ncc3cc(Nc4cccc(OC)c4Cl)c(C)nc32)cs1"
> 10 µM

Look up IC50 of O=C(Nc1cnn(-c2cccc(C(=O)Nc3cnn(C4CCNC4)c3)c2)c1)Nc1ccccc1Cl (stereo not drawn) and report it.
> 20 µM

Switching to the query record.
Look up and state reported IC50 for "CNC(=O)c1cc(-n2ncc3cc(Nc4c(F)cccc4OC)c(F)cc32)cs1"
0.065 µM
